System: adult mongrel dogs
test_summary: Acute in vivo cardiotonic activity in anesthetized dogs
Design: species or system dog (adult mongrel)
test_context: Canis lupus familiaris; 1.875 mg/kg intravenous, relative to controls; read-out: MABP, mean arterial blood pressure
As shown below, each of these compounds has a reported change in vivo at 1.875 mg/kg value.
Numbers only; they are read as %.

Some compounds with known change in vivo at 1.875 mg/kg results, for comparison:
[
  {
    "smi": "Cc1nc(O)c([N+](=O)[O-])c2cc3c(cc12)OCO3",
    "change in vivo at 1.875 mg/kg (%)": -8
  },
  {
    "smi": "O=[N+]([O-])c1c(O)ncc2cc3c(cc12)OCO3",
    "change in vivo at 1.875 mg/kg (%)": -7.5
  },
  {
    "smi": "COc1cc2cnc(O)c(NC(C)=O)c2cc1OC",
    "change in vivo at 1.875 mg/kg (%)": 1
  },
  {
    "smi": "COc1cc2c(-c3ccccc3)nc(O)c([N+](=O)[O-])c2cc1OC",
    "change in vivo at 1.875 mg/kg (%)": -15
  }
]

Could you now look at the following compound, please?
// query Recall the reported change in vivo at 1.875 mg/kg of CCOc1cc2c(C)nc(O)c(NC(C)=O)c2cc1OC on adult mongrel dogs and write it down.
// result 1

The origin of these recorded values is patent US4714705A.
